tested on: bovine trypsin; construct: purchased Sigma-Aldrich; experiment: In vitro stability against proteolysis by bovine trypsin; type: in vitro ADME; details: bovine trypsin 1000 U solution, 1 mM CaCl2 in PBS; 100 µL enzyme + 400 µL peptide 1.25 mg/mL; 37 °C with shaking; 30 min; analytical HPLC; read-out: degradation after 30 min of incubation with trypsin

[
  {
    "Substance": "Ac-LLLLLLLLLLTSLIAGPKAQVEAIQKYIGAELKKLIPNASLIENCTKAELSKKKK-NH2 (N-terminus and C-terminus assumed) [LL10]",
    "metabolised at 0.5 h, 1 mg/mL / %": 25
  }
]

====

tested on: bovine trypsin; construct: purchased Sigma-Aldrich; experiment: In vitro stability against proteolysis by bovine trypsin; type: in vitro ADME; conditions: bovine trypsin 1000 U solution, 1 mM CaCl2 in PBS; peptide 1.25 mg/mL; 37 °C with shaking; 60 min; analytical HPLC; read-out: conjugate remained intact after 60 min
Reported metric: remaining at 1 h, 1 mg/mL (%)

[
  {
    "Substance": "Ac-LLLLLLLLLLTSLIAGPKAQVEAIQKYIGAELKKLIPNASLIENCTKAELSKKKK-NH2 (N-terminus and C-terminus assumed) [LL10]",
    "Units text": "%",
    "Measured value": 15
  }
]
